- Tested on: CCRF-CEM
- Assay Details: NCI tumour cell line growth inhibition, 48 h
The source made the active and inactive calls. No stated cut-off is given here; in the data, active = GI50 up to about 1.1 µM and inactive = higher.
Entry note: the call must match one of label 1 for active, label 0 for inactive

These recorded examples may help you get a feel for the data.
* CC1(C)[C@@H]2CC[C@@]1(C)CN(CCC[N+](C)(C)C)C2 | label 0
* c1ccc2c(c1)CCc1c(-c3n[nH]c4c3CCc3ccccc3-4)n[nH]c1-2 | label 0
* COc1cc(Cn2c(=S)ss/c2=N\C(=S)N(C)C)cc(OC)c1OC | label 0

Qu. Can you look up the reported call for "NNC(=O)c1cc([N+](=O)[O-])ccc1NC(=O)C12CC3CC(CC(C3)C1)C2" for me?
Ans. label 0

Qu. Please share the test call associated with O=C(CC(O)(C(F)(F)F)C(F)(F)F)C(CCCl)C(O)(C(F)(F)F)C(F)(F)F (stereo not drawn) .
Ans. label 0

Qu. # lookup: test call for "CCCCCCc1cc2cc(C(=O)Nc3ccc(F)cc3)c(=N)oc2cc1O"
Ans. label 0

Qu. Which outcome was assigned to O=C1CC(c2ccco2)C2(C(=O)NC(=O)NC2=O)C(c2ccco2)C1 (stereo not drawn) in this test?
Ans. label 0

Qu. Field: outcome | Entry: "OCCCCn1cc(Cn2ncc3c(SCc4ccccc4)ncnc32)nn1"
Ans. label 0

Qu. What classification did C[C@]12Cc3cn[nH]c3C(=O)C1CC[C@@H]1C2CC[C@@]2(C)C1CC[C@]2(C)O (stereo partly drawn) end up with in this test?
Ans. label 0

Qu. Dear colleague, could you share the recorded outcome for "COc1cc(Cn2c3c(c4cc(O)ccc42)Cc2ccccc2C3=O)cc(OC)c1" when you have a moment?
Ans. label 0

Qu. Field: outcome | Entry: "O=[N+]([O-])c1ccc2c(c1)C1=C(CO2)Cc2ccccc2O1"
Ans. label 0

Qu. For "O=c1oc2ccccc2cc1-c1cc2ccccn2c1" , which call appears in the assay record?
Ans. label 0
